- System: mouse brain
- protocol notes: In situ cerebral perfusion with post-perfusion capillary depletion
- Format: in vivo, mice
- setup conditions: perfusion 5 min, total brain
No end group written: not given here.
metric: Volume of distribution, Homogenate (ml/100 g)

> print(dat)
                                  substance  system.name  observed.measurement
1  TFFYGGCRGKRNNFKTKRY [Peptide 78, T F F Y G G C R G K R N N F K T K R Y]  mouse brain                   198
2  TFFYGGSRGNRNNFKTAKY [Peptide 25, T F F Y G G S R G N R N N F K T A K Y]  mouse brain                  1141
3  T F F Y G G C R G K R N N F K T K E Y (TFFYGGCRGKRNNFKTKEY-NH2) [Peptide 76]  mouse brain                    40
4  TFFYGGCRGKRNNFKTEEY-NH2 [Peptide 67, T F F Y G G C R G K R N N F K T E E Y]  mouse brain                    38
5  R F K Y G G C L G N K N N Y L R L K Y (RFKYGGCLGNKNNYLRLKY-NH2) [Peptide 91]  mouse brain                    47
